Tested on: IP-10
test name: Cytokine induction in rats after intravenous administration
Assay type: in vivo, rat
measurement conditions: rat, 0.2 mpk, 48 hours after administration
property measured: IP-10 induction (pg/mL)
Field format: number, assumed pg/mL, no unit text.

> print(dat)
                                   compound  unit.name  meas.value
1  CCCCCCCCC(C)OC(=O)CCCCCCCN(CCO)CCCCCCCC(=O)OC(CCCCCCCC)CCCCCCCC (stereo not shown)      pg/mL         134

## Input Please give the documented IP-10 induction of CCCCCCCCC(CC)OC(=O)CCCCCCCN(CCO)CCCCCCCC(=O)OC(CCCCCCCC)CCCCCCCC (stereo not shown)
## Output 66

## Input Please give the documented IP-10 induction of CCCCC/C=C\C/C=C\CCCCCCCCC(CCCCCCCC/C=C\C/C=C\CCCCC)OC(=O)CCCN(C)C [MC3, DLin-MC3-DMA, reference compound]
## Output 2

## Input Please give the documented IP-10 induction of CCCCCCCCC(CCC)OC(=O)CCCCCCCN(CCO)CCCCCCCC(=O)OC(CCCCCCCC)CCCCCCCC (stereo not shown)
## Output 20

This collection of values is drawn from patent US12263248B2.
